# Test system: human CD33 V258A (human, UniProt P20138 18-364)
# Sequence (P20138 18-364 V258A limits assumed): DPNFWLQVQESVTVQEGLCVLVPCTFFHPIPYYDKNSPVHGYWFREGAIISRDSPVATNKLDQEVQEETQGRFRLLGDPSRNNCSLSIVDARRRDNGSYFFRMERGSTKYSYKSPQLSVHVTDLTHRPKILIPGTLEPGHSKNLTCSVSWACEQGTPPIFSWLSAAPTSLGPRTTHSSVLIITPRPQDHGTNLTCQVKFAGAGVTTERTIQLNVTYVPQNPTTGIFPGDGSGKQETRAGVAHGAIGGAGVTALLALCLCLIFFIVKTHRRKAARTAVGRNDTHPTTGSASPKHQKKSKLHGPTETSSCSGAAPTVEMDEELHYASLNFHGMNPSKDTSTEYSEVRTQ
# Test description: alanine scan, flow cytometry, HEK293-T;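 further: antibody binding to each alanine-substituted CD33 mutant expressed transiently in HEK293-T, read as fluorescence minus background, mean of duplicates, relative to wild-type CD33 set as 100%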
In this section, each of the binders is paired with its reported Mean % WT Binding.
Quantity measured: Mean % WT Binding (% WT binding)

1) Refmab #1 (antibody, V domains shown, The alanine scan used IgG or Fab; also called hP67.6) VH: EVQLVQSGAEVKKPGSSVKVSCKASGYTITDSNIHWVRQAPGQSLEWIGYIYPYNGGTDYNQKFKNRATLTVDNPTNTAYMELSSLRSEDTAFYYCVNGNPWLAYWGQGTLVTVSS VL: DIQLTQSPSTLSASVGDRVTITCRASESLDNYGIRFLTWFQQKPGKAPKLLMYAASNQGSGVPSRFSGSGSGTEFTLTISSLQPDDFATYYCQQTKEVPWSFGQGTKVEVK: 99.8
2) Refmab #4 (antibody, V domains shown, The alanine scan used IgG or Fab) VH: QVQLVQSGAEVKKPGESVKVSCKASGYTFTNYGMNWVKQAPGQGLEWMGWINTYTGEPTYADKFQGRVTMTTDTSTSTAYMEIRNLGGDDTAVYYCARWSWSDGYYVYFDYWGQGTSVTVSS VL: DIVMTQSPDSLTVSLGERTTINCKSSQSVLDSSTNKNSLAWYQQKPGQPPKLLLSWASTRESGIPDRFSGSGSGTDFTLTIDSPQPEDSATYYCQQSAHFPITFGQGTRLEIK: 95.8
3) Refmab #2 (antibody, V domains shown, The alanine scan used IgG or Fab) VH: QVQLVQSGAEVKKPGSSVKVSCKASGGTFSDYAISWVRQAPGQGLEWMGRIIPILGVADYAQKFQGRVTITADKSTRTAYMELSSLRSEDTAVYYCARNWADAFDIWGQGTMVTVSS VL: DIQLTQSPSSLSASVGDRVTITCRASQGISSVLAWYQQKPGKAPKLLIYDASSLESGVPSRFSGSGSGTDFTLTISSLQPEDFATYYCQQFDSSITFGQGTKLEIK: 111
4) Refmab #3 (antibody, V domains shown, The alanine scan used IgG or Fab) VH: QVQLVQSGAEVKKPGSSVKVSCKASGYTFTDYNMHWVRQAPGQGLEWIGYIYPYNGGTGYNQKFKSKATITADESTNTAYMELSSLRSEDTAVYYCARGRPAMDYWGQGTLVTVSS VL: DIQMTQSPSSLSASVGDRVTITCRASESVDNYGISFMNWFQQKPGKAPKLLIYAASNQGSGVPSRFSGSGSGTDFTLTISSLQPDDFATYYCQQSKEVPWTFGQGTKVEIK: 106
